Tested on: MOLT-4
Experiment: NCI tumour cell line growth inhibition, 48 h
Activity calls are given as the source filed them. Cut-off read from the data, not from the text of the source: active = GI50 up to about 1.1 µM and inactive = higher.
GI50 listing for selected molecules.

{"molecule": "CCc1cccc(C)c1N1C(=O)C(=O)C(c2nc3ccccc3o2)C(=O)C1=O", "GI50": "> 100 µM (inactive)"}

Lookup result for CC1C[C@@H]2C(=O)NC(=O)[C@@H]2c2c1c1ccccc1n2C (stereo partly specified) ; measured GI50: > 100 µM (inactive)

For reference, reported GI50 for O=C1OC(CC(=O)c2ccc(Cl)cc2)C(Cl)=C1Cl (stereo unspecified) stands at 39.2 µM (inactive)

Cn1c(CCC2(C)Cc3ccccc3C(=O)O2)cc2ccccc2c1=O (stereo unspecified) has a reported GI50 of > 10 µM (inactive)

Lookup result for O=c1cc(-c2ccccc2)oc2ccc(Oc3nnnn3-c3ccccc3)cc12 ; measured GI50: > 100 µM (inactive)

The molecule identified as O=C(c1ccc(NCN2C(=O)CCC2=O)cc1)c1ccc(NCN2C(=O)CCC2=O)cc1 registered its GI50 at > 100 µM (inactive)
